assay: chemical genetic growth profiling, strain panel (AID 1159580);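 note: tested at 20 µM; growth read once vehicle control cultures reached saturation at 30 °C; 1 = growth at the plate median or of vehicle wells; lower values mean less growth of the strain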; conditions: S. cerevisiae strains, growth OD, strain wild type
Screen size: about 5,500 compounds; about 2,000 (36%) were called active. Roughly 18% stayed inconclusive and do not appear here. Cut-off read from the data, not from the text of the source: active = normalized growth mostly below about 0.91 (no sharp cut-off); inconclusive = no clear call, values can overlap the other calls; inactive = mostly above about 0.92. The list shows a part of the results.
Outcome codes: true (1) for active, false (0) for inactive

compound	cat
O=C(Nc1nncs1)c1ccncc1	false (0)
CC[C@H](CCC(C)[C@H]1CCC2C3CCC4C[C@@H](O)CC[C@]4(C)C3CC[C@@]21C)C(C)C (stereo partly specified)	false (0)
CC(=O)Nc1ccc(S(=O)(=O)NC2Cc3ccccc3C2)cc1	false (0)
CC(=O)Nc1nnc(S(N)(=O)=O)s1	true (1)
CN(C)CCC(c1ccc(Br)cc1)c1ccccn1 (stereo unspecified)	false (0)
Nc1cc(-c2ccncc2)c[nH]c1=O	false (0)
COC(=O)CCC(C)[C@H]1CCC2C3C(C[C@H](O)[C@@]21C)[C@@]1(C)CC[C@@H](O)C[C@H]1C[C@H]3O (stereo partly specified)	false (0)
NC(N)=O	false (0)
CCN(CC)CCOC(=O)C(c1ccccc1)c1ccccc1	false (0)
COc1ccc(CCNC(=S)NCCc2ccc(OC)c(OC)c2)cc1OC	false (0)
COc1ccc(C(=O)N2CCCC2=O)cc1	false (0)
CC(C)CCCC(C)C1CCC2C3CC[C@H]4CCCC[C@]4(C)C3CC[C@]12C (stereo partly specified)	false (0)
COc1cc(OC)c2c3c1C(=O)c1c(OC)cc(C)c4c(OC)cc(c-3c14)C(C)(C)C2=O	false (0)
CC1CC2C3CC(F)C4=CC(=O)C=CC4(C)C3(F)C(O)CC2(C)C1C(=O)COC(=O)C(C)(C)C (stereo unspecified)	true (1)
O=C(O)c1ccccc1C(=O)Nc1ccc(S(=O)(=O)Nc2nccs2)cc1	false (0)
C[C@@H]1CC2C3C[C@H](F)C4=CC(=O)C=C[C@]4(C)[C@@]3(F)[C@@H](O)C[C@]2(C)[C@@]1(O)C(=O)COC(=O)C(C)(C)C (stereo partly specified)	false (0)
CCC(=O)c1c(C)c(C)c(C)c(C)c1C	false (0)
COC(=O)CCC(=O)O[C@H]1CCC2(C)C(CCC3C2C(=O)[C@@H](O)C2(C)C3CC3OC4(CCC(C)CO4)[C@@H](C)C32)C1 (stereo partly specified)	false (0)
Cc1nc2ccccn2c(=O)c1CCN1CCC(C(=O)c2ccc(F)cc2)CC1	false (0)
Cc1nc2sccn2c(=O)c1CCN1CCC(=C(c2ccc(F)cc2)c2ccc(F)cc2)CC1	true (1)
Nc1ccn(C2O[C@H](CO)[C@@H](O)[C@H]2O)c(=O)n1 (stereo partly specified)	false (0)
